The entries below are paired with their reported melting point.
Structures can show the parent of a compound that is named as a salt.

{"columns": ["molecule", "melting point"],
 "data": [
  ["COc1ccccc1C(=O)NC1CCN(CCC(c2ccccc2)c2ccccc2)CC1 (as salt: hydrochloride) [Example 38, monohydrochloride]", "170 to 172 °C"],
  ["O=C1CC(CN2CCN(c3ccccc3)CC2)Cc2ccccc21 (stereo not drawn) (as salt: hydrochloride) [Example 23, monohydrochloride]", "243 to 246 °C"],
  ["CC(=O)N(Cc1ccccc1)C1CCN(CCC(c2ccccc2)c2ccccc2)CC1 (as salt: hydrochloride) [Example 41, monohydrochloride]", "102 to 105 °C"]
]}
